# TEST: NCI Yeast Anticancer Drug Screen. Data for the cln2 rad14 strain (AID 165)
# TEST_SETTINGS: S. cerevisiae cln2 rad14 strain, at 50.0 µM
Compounds without any hit were thinned out: in the full panel of roughly 79,000, 15% have a hit. Calls of active or inactive are those of the source. Cut-off read from the data, not from the text of the source: active = growth inhibition above about 70%; inactive = the rest.
Classes used: Yes for active, No for inactive

[
  {
    "COMPOUND": "O=C(c1ccccc1)c1ccc2n[se]nc2c1",
    "CATEGORY": "No"
  },
  {
    "COMPOUND": "O=C/C=C/c1ccco1",
    "CATEGORY": "No"
  },
  {
    "COMPOUND": "N#Cc1ccccn1",
    "CATEGORY": "No"
  },
  {
    "COMPOUND": "COc1cc(C2c3cc4c(cc3OC(O)C2C)OCO4)cc(OC)c1O (stereo not given)",
    "CATEGORY": "No"
  },
  {
    "COMPOUND": "O=C1Cc2ccccc2C(=O)N1CCN1CCOCC1",
    "CATEGORY": "No"
  },
  {
    "COMPOUND": "C(=NCCN=CC1CCCC[N-]1)C1CCCC[N-]1.[Cu+2].[O-][Cl+3]([O-])([O-])O (stereo not given)",
    "CATEGORY": "Yes"
  },
  {
    "COMPOUND": "COc1ccc2nc3c4ccccc4scc-3c2c1",
    "CATEGORY": "Yes"
  },
  {
    "COMPOUND": "CCN1C(=O)CC(=O)N(CC)C1=S",
    "CATEGORY": "No"
  },
  {
    "COMPOUND": "O=C1C=CC(=O)N1CO",
    "CATEGORY": "No"
  },
  {
    "COMPOUND": "COc1ccc2c(c1OC(C)=O)-c1cc(OC(C)=O)cc3c1C(C2)NCC3 (stereo not given)",
    "CATEGORY": "No"
  },
  {
    "COMPOUND": "CCCCCCCC/C=C\\CCCCCCCC(=O)OCC(COC(=O)CCCCCCC/C=C\\CCCCCCCC)OC(=O)N(CCCl)CCCl",
    "CATEGORY": "No"
  },
  {
    "COMPOUND": "O=C(OC12CCN(CC1)CC2)c1ccccc1",
    "CATEGORY": "No"
  },
  {
    "COMPOUND": "C/C(CCl)=N\\NC1=NC(C)(CCl)P(=O)(NNc2ncccn2)S1 (stereo not given)",
    "CATEGORY": "No"
  },
  {
    "COMPOUND": "CC(=O)[O-].CC(=O)[O-].[Mn+2].c1ccc(/C(=N\\Nc2ccccn2)c2ccccn2)cc1",
    "CATEGORY": "Yes"
  },
  {
    "COMPOUND": "CC(=O)O[C@H]1CC[C@@]2(C)[C@H](CC[C@@H]3[C@@H]2CC[C@]2(C)[C@@H](c4ccc(=O)oc4)C[C@H]4O[C@]342)C1",
    "CATEGORY": "No"
  },
  {
    "COMPOUND": "C/C=C/CC1(CC)C(=O)NC(=O)NC1=O",
    "CATEGORY": "No"
  },
  {
    "COMPOUND": "C=[CH][Pb]([CH]=C)([CH]=C)[O]C(C)=O",
    "CATEGORY": "Yes"
  },
  {
    "COMPOUND": "CCCCNC(=O)CCl",
    "CATEGORY": "No"
  },
  {
    "COMPOUND": "CCOC(=O)c1c(SC)nc(-c2ccc(Cl)cc2)sc1=N",
    "CATEGORY": "No"
  },
  {
    "COMPOUND": "[Cl][Ni][Cl].[NH-]CCN1CC1.[NH-]CCN1CC1",
    "CATEGORY": "No"
  },
  {
    "COMPOUND": "CC(NC(=O)c1ccccc1)N(C)[N+](=O)[O-] (stereo not given)",
    "CATEGORY": "No"
  },
  {
    "COMPOUND": "OC1NC2CC3NC(O)C(O)NC3CC2NC1O (stereo not given)",
    "CATEGORY": "No"
  },
  {
    "COMPOUND": "c1ccc2c(c1)sc1ccccc12",
    "CATEGORY": "No"
  },
  {
    "COMPOUND": "C[As](C)(=S)[As](C)(C)=S",
    "CATEGORY": "No"
  },
  {
    "COMPOUND": "CC1(C)N(C(=S)Nc2ccccc2)C1(C)C",
    "CATEGORY": "No"
  }
]
